Assay: binders of probe aFGF10 on microarray, primary screen, stem cell growth factor project, biochemical, small-molecule microarray, fluorescence 635/667 (AID 1071);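 also: score merges 667 nm spot intensity and signal to noise from triplicate slides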
Conditions: higher = more signal
# cutoff 0.3 applies to composite z-score; >= gives Yes, < gives No

Solved cases below.
[[record]]
compound = "Cc1ccc(S[C@]2(C(=O)NCC(C)C)CC(=O)N(C(C)C)[C@@H]2c2ccc(CO)cc2I)cc1"
label = "No"

[[record]]
compound = "C=C(CC1([C@@H](NP(=O)(c2ccccc2)c2ccccc2)[C@H]2C[C@@H]2CCCC)CC1)c1cccc(OC)c1"
label = "Yes"

[[record]]
compound = "Cc1ccc(S[C@]2(C(=O)NCCN3CCOCC3)CC(=O)N(C(C)C)[C@@H]2c2ccc(CO)cc2I)cc1"
label = "No"

[[record]]
compound = "COc1ccc(C(O)C2C=CC3C(=O)N(C)C(=O)C3N2Nc2ccccc2)cc1 (centres undefined)"
label = "Yes"

[[record]]
compound = "COc1ccc(-c2cc3c(c(CCc4ccccc4)n2)[Si](C(C)C)(C(C)C)O[C@H]3c2ccccc2)cn1"
label = "No"


Query: Determine whether measured composite z-score meets or exceeds 0.3 for [N-]=[N+]=NCc1ccccc1C[C@@]1(C(=O)NCCN2CCOCC2)N=C(c2ccc(OCCCO)cc2)O[C@@H]1c1ccccc1
Reply: No

Query: Determine whether measured composite z-score meets or exceeds 0.3 for CC(C)c1ccc(NN2C(C(O)C3=C[C@H]4C[C@@H](C3)C4(C)C)C=CC3C(=O)N(c4ccccc4)C(=O)C32)cc1 (some centres undefined)
Reply: Yes

Query: Determine whether measured composite z-score meets or exceeds 0.3 for C=CCNC(=O)[C@H]1[C@@H]2C(=O)O[C@@H](c3ccccc3)[C@@H](c3ccccc3)N2[C@@H](c2ccc(O)cc2)[C@]12C(=O)Nc1ccc(C#CCC(C(=O)OC)C(=O)OC)cc12
Reply: No

Query: Determine whether measured composite z-score meets or exceeds 0.3 for COCCOC(=O)N1C(=O)[C@@]2(c3cc(C#CCCO)ccc31)[C@H](c1ccc(O)cc1)N1[C@H](c3ccccc3)[C@H](c3ccccc3)OC(=O)[C@H]1[C@@H]2C(=O)NC[C@H](O)c1ccccc1
Reply: Yes

====

I'd be grateful if you could share measured composite z-score for these entries.
Assay: anti-His antibody binders, primary screen, artefact control for SMM control protein annotation, biochemical, small-molecule microarray, 635 nm fluorescence (AID 1128);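 also: score merges feature fluorescence with signal-to-noise for each printed compound spot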
Conditions: anti-His Alexa647 antibody binding, higher = more signal
Answers are plain numbers.

Below are worked cases with known answers.
[[record]]
molecule = "COCCOC(=O)N1C(=O)[C@@]2(c3cc(C#CC4(O)CCCCCC4)ccc31)[C@H](C(N)=O)[C@H]1C(=O)O[C@H](c3ccccc3)[C@H](c3ccccc3)N1[C@@H]2c1ccc(OCCO)cc1"
property_measured = "composite z-score"
measured_value = 2.19

[[record]]
molecule = "CCCN1C(=O)[C@@]2(c3ccc([N+](=O)[O-])cc3)CC(=O)N(C3CCCCC3)[C@@H]2c2ccc(CO)cc21"
property_measured = "composite z-score"
measured_value = 0.993

[[record]]
molecule = "C[C@H]1C2[C@H](Cc3ccccc3)NC(=O)[C@]23C(=O)N[C@@H](Cc2ccccc2)C(=O)N2CCC[C@H]2C(=O)NC/C=C/CC/C=C/C3[C@@H]2O[C@]12C (stereo partly specified)"
property_measured = "composite z-score"
measured_value = 0.196

[[record]]
molecule = "C=C(COC)/C(=C/C[C@@H](OC(C)=O)c1cccc(OCCO)c1)c1cnc2ccccc2c1"
property_measured = "composite z-score"
measured_value = 0.309

[[record]]
molecule = "O=C1C2C=CC(C(O)C3CC=CCC3)N(Nc3ccc([N+](=O)[O-])cc3)C2C(=O)N1c1ccccc1 (stereo unspecified)"
property_measured = "composite z-score"
measured_value = 2.2


Next:
// field: composite z-score; key: C=CCC(OC(C)=O)[C@@H]1[C@@H](N(Cc2ccc(-c3ccccc3)cc2)C(=O)Cc2ccc(OC)cc2)c2cc(OCCCO)ccc2N1C(=O)c1ccc2ccccc2c1 (stereo partly specified) ; value = -0.365
